# systemName: KRAS G12D (Homo sapiens (Human), UniProt P01116+P62937, G12D)
# Sequence (P01116-2 other isoform, or with tags, fused parts or gaps G12D, one chain of several): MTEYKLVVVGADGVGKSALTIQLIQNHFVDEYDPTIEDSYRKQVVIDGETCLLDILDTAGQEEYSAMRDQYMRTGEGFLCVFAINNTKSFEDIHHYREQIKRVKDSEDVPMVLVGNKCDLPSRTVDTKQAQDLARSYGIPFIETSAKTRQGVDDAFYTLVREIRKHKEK
# assayInfo: Ras-Raf (BRAF RBD) disruption / FRET / MOA assay, KRAS G12D
# Format: biochemical
# conditionDescription: Ras-Raf disruption/FRET/MOA assay; class symbols; read-out: KRAS G12D FRET data IC50
pIC50: −log10 of the molar value.
measuredEndpoint: pIC50

get_value(item= CC#CC(=O)N1CC[C@H](C(=O)N(C)[C@H](C(=O)N[C@H]2Cc3cccc(c3)-c3ccc4c(c3)c(c(-c3cccnc3[C@H](C)OC)n4CC)CC(C)(C)COC(=O)[C@@H]3CCCN(N3)C2=O)C(C)C)C1 (atropisomer, axis not shown) , readout=pIC50) returns < 5.00

Now consider a different compound.
get_value(item= C=CC(=O)N1CC[C@H](C(=O)N(C)[C@H](C(=O)N[C@H]2Cc3cc(O)cc(c3)-c3ccc4c(c3)c(c(-c3ccccc3CCOC)n4CC)CC(C)(C)COC(=O)[C@@H]3CCCN(N3)C2=O)C2CCOCC2)C1 , readout=pIC50) returns < 5.00

* * *

# IC50 annotations
# systemName: K-Ras G12C (Homo sapiens (Human), UniProt P01116+P62937, G12C)
# Sequence (P01116-2 other isoform, or with tags, fused parts or gaps G12C): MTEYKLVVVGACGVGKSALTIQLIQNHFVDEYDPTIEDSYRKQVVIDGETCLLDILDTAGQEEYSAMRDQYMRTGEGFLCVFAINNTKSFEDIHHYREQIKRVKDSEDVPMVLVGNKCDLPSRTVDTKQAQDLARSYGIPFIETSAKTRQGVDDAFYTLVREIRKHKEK
# Sequence (P62937 whole entry): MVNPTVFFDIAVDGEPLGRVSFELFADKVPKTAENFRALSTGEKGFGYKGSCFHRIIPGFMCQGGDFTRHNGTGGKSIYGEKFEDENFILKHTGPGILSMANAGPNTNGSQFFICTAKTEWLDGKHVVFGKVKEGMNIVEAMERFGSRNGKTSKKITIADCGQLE
# assayInfo: Ras-Raf (BRAF RBD) disruption / FRET / MOA assay, KRAS G12C
# Format: biochemical
# conditionDescription: KRAS G12C; Ras-Raf disruption/FRET/MOA assay; read-out: IC50* KRAS G12C FRET data

get_value(item= C=CC(=O)N(C)C[C@H]1CCN1C(=O)N(C)[C@H](C(=O)N[C@H]1Cc2nc(cs2)-c2ccc3c(c2)c(c(-c2cccnc2[C@H](C)OC)n3CC)CC(C)(C)COC(=O)[C@@H]2CCCN(N2)C1=O)C(C)C (atropisomer, axis not shown) [Example A369] , readout=IC50) returns 100 to 1000 nM

Now consider a different compound.
get_value(item= C=C(OC)C(=O)N1CC2(CCN(C(=O)N(C)[C@H](C(=O)N[C@H]3Cc4nc(cs4)-c4ccc5c(c4)c(c(-c4cccnc4[C@H](C)OC)n5CC)CC(C)(C)COC(=O)[C@@H]4CCCN(N4)C3=O)C(C)C)CC2)C1 (atropisomer, axis not shown) [Example A681] , readout=IC50) returns 10 to 100 nM

* * *

# systemName: NRAS Q61K (Homo sapiens (Human), UniProt P01111+P62937, Q61K)
# Sequence (P01111 whole entry Q61K, one chain of several): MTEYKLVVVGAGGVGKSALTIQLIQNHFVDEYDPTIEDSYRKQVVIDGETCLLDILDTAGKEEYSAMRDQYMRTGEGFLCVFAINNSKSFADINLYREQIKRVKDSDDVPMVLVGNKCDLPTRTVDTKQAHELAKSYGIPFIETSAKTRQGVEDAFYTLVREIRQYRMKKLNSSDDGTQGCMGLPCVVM
# assayInfo: Ras-Raf (BRAF RBD) disruption / FRET / MOA assay, NRAS Q61K
# Assay type: biochemical
# conditionDescription: NRAS Q61K; Ras-Raf disruption/FRET/MOA assay; read-out: IC50* NRAS Q61K FRET data
measuredEndpoint: IC50

Recorded IC50, per entry:
get_value(item= C=CC(=O)N1CC[C@H](C(=O)N(C)[C@H](C(=O)N[C@H]2Cc3cccc(c3)-c3ccc4c(c3)c(c(-c3cccnc3[C@H](C)OC)n4CC#CC)CC(C)(C)COC(=O)[C@@H]3CCCN(N3)C2=O)C(C)C)C1 (atropisomer, axis not shown) , readout=IC50) returns 1000 to 10000 nM

get_value(item= CCn1c(-c2cccnc2[C@H](C)OC)c2c3cc(ccc31)-c1cccc(n1)C[C@H](NC(=O)[C@H](C(C)C)N(C)C(=O)N1CCC13CN(C(=O)C#CC(C)(C)N(C)C)C3)C(=O)N1CCC[C@H](N1)C(=O)OCC(C)(C)C2 (atropisomer, axis not shown) , readout=IC50) returns 100 to 1000 nM

get_value(item= CCn1c(-c2cccnc2[C@H](C)OC)c2c3cc(ccc31)-c1csc(n1)C[C@H](NC(=O)[C@H](C(C)C)N(C)C(=O)N1CCC3(CC1)CN(C(=O)/C=C/CN(C)C)C3)C(=O)N1CCC[C@H](N1)C(=O)OCC(C)(C)C2 (atropisomer, axis not shown) , readout=IC50) returns 10 to 100 nM

Now consider a different molecule.
get_value(item= C=C(F)C(=O)N1CC(N(C)C(=O)N(C)[C@H](C(=O)N[C@H]2Cc3nc(cs3)-c3ccc4c(c3)c(c(-c3cccnc3[C@H](C)OC)n4CC)CC(C)(C)COC(=O)[C@@H]3CCCN(N3)C2=O)C(C)C)C1 (atropisomer, axis not shown) , readout=IC50) returns 100 to 1000 nM
